assay: Odor of permanently waved hair strands, rinse-off method (base: hair-cure agent); conditions: rinse-off hair-cure agent, 5-min contact, table head 0.01 wt. % (text b103: 0.1 wt. %), Day 4, dry, pH 2-3; each symbol = one test strand
endpoint_label: Odor rating vs blank, Day 4, pH 2-3

compound | reading
CC(=O)C(=O)[O-].[Na+] [Na pyruvate] | ∘ + +
CC(=O)CCC(=O)[O-].[Na+] [Na levulinate] | ∘ ∘ +
O=CC(=O)[O-].[Na+] [Na glyoxylate] | ∘ + +
O=C([O-])CC(O)(CC(=O)[O-])C(=O)[O-].O=C([O-])CC(O)(CC(=O)[O-])C(=O)[O-].[Zn+2].[Zn+2].[Zn+2] [Trizinc dicitrate, trizinc dicitrate] | ∘ ∘ +
CC(=O)C(=O)[O-].CC(=O)C(=O)[O-].[Zn+2] [Zn pyruvate] | ∘ ∘ ∘
O=CC(=O)[O-].O=CC(=O)[O-].[Zn+2] [Zn glyoxylate] | ∘ ∘ +

* * *

assay: Odor of permanently waved hair strands, rinse-off method (base: hair-cure agent); conditions: rinse-off hair-cure agent, 5-min contact, table head 0.01 wt. % (text b103: 0.1 wt. %), Day 2, dry, pH 2-3; each symbol = one test strand

compound | Odor rating vs blank, Day 2, pH 2-3
CC(=O)C(=O)[O-].[Na+] [Na pyruvate] | ∘ + +
O=CC(=O)[O-].[Na+] [Na glyoxylate] | + ∘ +
CC(=O)C(=O)[O-].CC(=O)C(=O)[O-].[Zn+2] [Zn pyruvate] | ∘ ∘ ∘
O=CC(=O)[O-].O=CC(=O)[O-].[Zn+2] [Zn glyoxylate] | ∘ ∘ ∘
O=C([O-])CC(O)(CC(=O)[O-])C(=O)[O-].O=C([O-])CC(O)(CC(=O)[O-])C(=O)[O-].[Zn+2].[Zn+2].[Zn+2] [Trizinc dicitrate, trizinc dicitrate] | + ∘ ∘
CC(=O)CCC(=O)[O-].[Na+] [Na levulinate] | + + ∘

* * *

test: Odor of permanently waved hair strands, rinse-off method (base: hair-cure agent); details: rinse-off hair-cure agent, 5-min contact, table head 0.01 wt. % (text b103: 0.1 wt. %), Day 3, wet, pH 2-3; each symbol = one test strand

molecule | Odor rating vs blank, Day 3, pH 2-3
CC(=O)C(=O)[O-].CC(=O)C(=O)[O-].[Zn+2] [Zn pyruvate] | ∘ ∘ ∘
CC(=O)C(=O)[O-].[Na+] [Na pyruvate] | ∘ + +
O=CC(=O)[O-].O=CC(=O)[O-].[Zn+2] [Zn glyoxylate] | ∘ ∘ +
O=C([O-])CC(O)(CC(=O)[O-])C(=O)[O-].O=C([O-])CC(O)(CC(=O)[O-])C(=O)[O-].[Zn+2].[Zn+2].[Zn+2] [Trizinc dicitrate, trizinc dicitrate] | ∘ ∘ +
O=CC(=O)[O-].[Na+] [Na glyoxylate] | ∘ ∘ +
CC(=O)CCC(=O)[O-].[Na+] [Na levulinate] | ∘ + +

* * *

assay: Odor of permanently waved hair strands, leave-on method (base: conditioner); conditions: test substance 0.01 wt. %, Day 1, wet, pH 4-5, each symbol = one test strand
endpoint_label: Odor rating vs blank, Day 1, pH 4-5

molecule | reading
CC(=O)C(=O)[O-].CC(=O)C(=O)[O-].[Zn+2] [Zn pyruvate] | + + +
CC(=O)CCC(=O)[O-].[Na+] [Na levulinate] | + ∘ +
O=CC(=O)[O-].O=CC(=O)[O-].[Zn+2] [Zn glyoxylate] | + ∘ ∘
O=CC(=O)[O-].[Na+] [Na glyoxylate] | ∘ + ∘
CC(=O)C(=O)[O-].[Na+] [Na pyruvate] | ∘ ∘ +
O=C([O-])CC(O)(CC(=O)[O-])C(=O)[O-].O=C([O-])CC(O)(CC(=O)[O-])C(=O)[O-].[Zn+2].[Zn+2].[Zn+2] [Trizinc dicitrate, trizinc dicitrate] | ∘ + +
